Source listed as PubChem BioAssay AID1963830.

Could you please report measured viability, T/C for the items listed next?
system: 922993-354-T-J3-PDC complex spheroid viability; assay: Anticancer human tumor 922993-354-T-J3-PDC patient-derived endometrial carcinoma cell line growth inhibition [POLQ]; details: second compound 0.1 µM; first compound 1 µM; active compounds read low
Report only the number, with the unit % understood.

What value of viability, T/C has been recorded for this entry: CC(C)n1c(=O)n(C)c2cnc3cc(F)c(-c4ccc(OCCCN5CCCCC5)nc4)cc3c21 + Cc1cccc(N(C)C(=O)C2C(O)CCN2c2nc(C)cc(C(F)(F)F)c2C#N)c1
97.9

Need viability, T/C, item CC1COCCN1c1cc(C2(S(C)(=N)=O)CC2)nc(-c2ccnc3[nH]ccc23)n1 (stereo unspecified) + Nc1ccc(C#CCN(C(=O)Cc2ncc(C(F)(F)F)cc2C(F)(F)F)c2ccc(F)cc2)nn1
102

Any idea what viability, T/C was measured for O=c1[nH]cc(F)c(=O)[nH]1 + Nc1ccc(C#CCN(C(=O)Cc2ncc(C(F)(F)F)cc2C(F)(F)F)c2ccc(F)cc2)nn1 ?
102

I have this compound here, CC1COCCN1c1cc(C2(S(C)(=N)=O)CC2)nc(-c2ccnc3[nH]ccc23)n1 (stereo unspecified) + Cc1cccc(N(C)C(=O)C2C(O)CCN2c2nc(C)cc(C(F)(F)F)c2C#N)c1 , and I need its recorded viability, T/C.
99.7

# viability, T/C lookup, item COc1cccc(OCCCN)c1-c1cc(Nc2cnc(C#N)cn2)n[nH]1 + Cc1cccc(N(C)C(=O)C2C(O)CCN2c2nc(C)cc(C(F)(F)F)c2C#N)c1
14.5

Consider the compound O=c1[nH]cc(F)c(=O)[nH]1 + Cc1cccc(N(C)C(=O)C2C(O)CCN2c2nc(C)cc(C(F)(F)F)c2C#N)c1 and give its measured viability, T/C.
94.4

* * *

Exercise: state measured viability, T/C for each of the molecules provided.
system: 922993-354-T-J3-PDC complex spheroid viability; test: Anticancer human tumor 922993-354-T-J3-PDC cell line growth inhibition [POLQ]; details: second compound 0.1 µM; first compound 0.00316 µM; active compounds read low;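 further: spheroids exposed to the agents for one week; 100% = DMSO vehicle control wells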
Response body: numeric value in %, unit text excluded.

What measured viability, T/C goes with C=CCn1c(=O)c2cnc(Nc3ccc(N4CCN(C)CC4)cc3)nc2n1-c1cccc(C(C)(C)O)n1 + Nc1ccc(C#CCN(C(=O)Cc2ncc(C(F)(F)F)cc2C(F)(F)F)c2ccc(F)cc2)nn1 ?
107

Quick check: viability, T/C of CC[C@@]1(O)C(=O)OCc2c1cc1n(c2=O)Cc2cc3c(CN(C)C)c(O)ccc3nc2-1 + COC1C(OC(N)=O)C(O)C(Oc2ccc3c(O)c(NC(=O)c4ccc(O)c(CC=C(C)C)c4)c(=O)oc3c2C)OC1(C)C ?
102

Reported viability, T/C for Cn1ncnc1[C@H]1c2n[nH]c(=O)c3cc(F)cc(c23)N[C@@H]1c1ccc(F)cc1 + Cc1cccc(N(C)C(=O)C2C(O)CCN2c2nc(C)cc(C(F)(F)F)c2C#N)c1 : what is it?
94.2

Find the recorded viability, T/C belonging to Cn1ncnc1[C@H]1c2n[nH]c(=O)c3cc(F)cc(c23)N[C@@H]1c1ccc(F)cc1 + Nc1ccc(C#CCN(C(=O)Cc2ncc(C(F)(F)F)cc2C(F)(F)F)c2ccc(F)cc2)nn1 and report it.
102

Please report the recorded viability, T/C for CC[C@@]1(O)C(=O)OCc2c1cc1n(c2=O)Cc2cc3c(CN(C)C)c(O)ccc3nc2-1 + Nc1ccc(C#CCN(C(=O)Cc2ncc(C(F)(F)F)cc2C(F)(F)F)c2ccc(F)cc2)nn1 .
100
